Data credit: patent US20240368177A1

# Test system: HCT116-MTAP-KO
# experiment: Cell killing in HCT116 isogenic pair (Cell Titer-Glo viability), MTAP knock-out cells
# Format: cell-based, human
# measurement.setup: Homo sapiens, HCT-116, 144 h, 6 days incubation, 0-10 μM, * = more than 50% viability inhibition at tested concentration without a full curve
assay.endpoint: log10 of IC50 (log10 of the value in nM)

{"molecule": "CN(C(=O)c1cc2nc(N)c3c(c2[nH]1)COC3)[C@@H]1COCc2cc(C(F)(F)F)cc(F)c21", "target": "HCT116-MTAP-KO", "log10 of IC50": 1.11}
{"molecule": "CCN(C(=O)c1cc2nc(N)c3c(c2[nH]1)COC3)[C@@H](C)c1ncc(Br)cc1F", "target": "HCT116-MTAP-KO", "log10 of IC50": 2.73}
{"molecule": "Nc1nc2cc(C(=O)N(Cc3ccc(-c4c(F)cncc4F)cn3)Cc3c(F)cccc3F)[nH]c2c2c1COC2", "target": "HCT116-MTAP-KO", "log10 of IC50": -0.10}
{"molecule": "CCN(C(=O)c1cc2nc(N)c3c(c2[nH]1)CO[C@@H]3C)[C@H](C)c1ncc(Br)cc1F", "target": "HCT116-MTAP-KO", "log10 of IC50": 0.78}
{"molecule": "Nc1nc2cc(C(=O)N(Cc3c(F)cccc3F)Cc3c(F)cccc3F)[nH]c2c2c1COC2", "target": "HCT116-MTAP-KO", "log10 of IC50": 0.38}
{"molecule": "CC[C@H]1OC[C@@H](N(C)C(=O)c2cc3nc(N)c4c(c3[nH]2)COC4)c2ccc(C(F)(F)F)cc21", "target": "HCT116-MTAP-KO", "log10 of IC50": 0.58}
{"molecule": "COCC(C)N(Cc1c(F)cccc1F)C(=O)c1cc2nc(N)c3c(c2[nH]1)COC3 (stereo not drawn)", "target": "HCT116-MTAP-KO", "log10 of IC50": 1.53}
{"molecule": "CCC(CC)N(Cc1cc(C)c(C2CC2)cn1)C(=O)c1cc2nc(N)c3c(c2[nH]1)COC3", "target": "HCT116-MTAP-KO", "log10 of IC50": 1.38}
{"molecule": "Nc1nc2cc(C(=O)N(Cc3ccc(-c4c(F)cccc4F)cn3)[C@@H]3CCCc4cccnc43)[nH]c2c2c1COC2", "target": "HCT116-MTAP-KO", "log10 of IC50": 0.52}
{"molecule": "CCN(C(=O)c1cc2nc(N)c3c(c2[nH]1)CO[C@@H]3C)[C@H](C)c1ccc(C2CC2)cc1F", "target": "HCT116-MTAP-KO", "log10 of IC50": 1.15}
{"molecule": "CCN(C(=O)c1cc2nc(N)c3c(c2[nH]1)COC3)[C@@H]1COCc2cc(C(F)(F)F)ccc21", "target": "HCT116-MTAP-KO", "log10 of IC50": 1.08}
{"molecule": "C[C@H]1OC[C@@H](N(C)C(=O)c2cc3nc(N)c4c(c3[nH]2)COC4)c2ccc(C(F)(F)F)cc21", "target": "HCT116-MTAP-KO", "log10 of IC50": 0.86}
{"molecule": "CCN(C(=O)c1cc2nc(N)c3c(c2[nH]1)CO[C@@H]3C)[C@@H](C)c1ncc(Br)cc1F", "target": "HCT116-MTAP-KO", "log10 of IC50": 3.07}

====

# System: HCT116-MTAP-KO
# experiment: Cell killing in HCT116 isogenic pair (Cell Titer-Glo viability), MTAP knock-out cells
# Format: cell-based, human
# measurement.setup: Homo sapiens, HCT-116, 144 h, 6 days incubation, 0-10 μM, * = more than 50% viability inhibition at tested concentration without a full curve
assay.endpoint: log10(IC50) (log10 of the value in nM)

{"smiles.structure": "Nc1nc2cc(C(=O)N(Cc3ncccn3)Cc3ncc(C(F)(F)F)cc3F)[nH]c2c2c1COC2", "log10(IC50)": 1.38}
{"smiles.structure": "C[C@@H](c1ncc(C2CC2)cc1F)N(C)C(=O)c1cc2nc(N)c3c(c2[nH]1)COC3", "log10(IC50)": 3.35}
{"smiles.structure": "CN(C(=O)c1cc2nc(N)c3c(c2[nH]1)COC3)[C@@H]1COCc2cc(Br)ccc21", "log10(IC50)": 1.34}
{"smiles.structure": "C[C@@H](c1cnccn1)N(Cc1ncc(Br)cc1F)C(=O)c1cc2nc(N)c3c(c2[nH]1)COC3", "log10(IC50)": 2.91}
{"smiles.structure": "CO[C@@H]1CCOC[C@H]1N(Cc1ccc(C(F)(F)F)cn1)C(=O)c1cc2nc(N)c3c(c2[nH]1)COC3", "log10(IC50)": 1.15}
{"smiles.structure": "CCN(C(=O)c1cc2nc(N)c3c(c2[nH]1)COC3)[C@H](C)c1ncc(Br)cc1F", "log10(IC50)": 1.04}
{"smiles.structure": "CN(C(=O)c1cc2nc(N)c3c(c2[nH]1)COC3)[C@@H]1CN(C(=O)C2CC2)Cc2cc(C(F)(F)F)ccc21", "log10(IC50)": 0.15}

====

As shown below, each of these compounds has a reported log10(IC50) value.
# Tested on: HCT116-MTAP-KO
# experiment: Cell killing in HCT116 isogenic pair (Cell Titer-Glo viability), MTAP knock-out cells
# Type: cell-based, human
# measurement.setup: Homo sapiens, HCT-116, 144 h, 6 days incubation, 0-10 μM, * = more than 50% viability inhibition at tested concentration without a full curve
assay.endpoint: log10(IC50) (log10 of the value in nM)

{"compound": "C[C@@H]1OC[C@H](N(C)C(=O)c2cc3nc(N)c4c(c3[nH]2)COC4)c2ccc(Br)cc21 [Example 78]", "log10(IC50)": 2.80}
{"compound": "Nc1nc2cc(C(=O)N3CCOC[C@@H]3c3ccc(C(F)(F)F)cc3)[nH]c2c2c1COC2 [Example 141]", "log10(IC50)": 2.17}
{"compound": "CCN(C(=O)c1cc2nc(N)c3c(c2[nH]1)COC3)[C@H]1COCc2cc(C(F)(F)F)ccc21 [Example 55]", "log10(IC50)": 3.21}
{"compound": "CO[C@@H]1CCOC[C@H]1N(Cc1ccc(-c2c(F)cncc2F)cn1)C(=O)c1cc2nc(N)c3c(c2[nH]1)COC3 [Example 15]", "log10(IC50)": 0.91}
{"compound": "C[C@@H](c1ncc(C2CC2)cc1F)N(C(=O)c1cc2nc(N)c3c(c2[nH]1)COC3)C1CCC1 [Example 154]", "log10(IC50)": 3.21}
{"compound": "COC[C@@H](C)N(Cc1ncc(Br)cc1F)C(=O)c1cc2nc(N)c3c(c2[nH]1)COC3 [Example 49]", "log10(IC50)": 0.79}
{"compound": "CN(C(=O)c1cc2nc(N)c3c(c2[nH]1)COC3)[C@H]1COCc2cc(Br)ccc21 [Example 64]", "log10(IC50)": 2.56}

====

# IC50 per record follows
# Test system: HCT116-MTAP-KO
# experiment: Cell killing in HCT116 isogenic pair (Cell Titer-Glo viability), MTAP knock-out cells
# Format: cell-based, human
# measurement.setup: Homo sapiens, HCT-116, 144 h, 6 days incubation, 0-10 μM, * = more than 50% viability inhibition at tested concentration without a full curve

{"smiles.structure": "CCN(C(=O)c1cc2nc(N)c3c(c2[nH]1)COC3)[C@H]1COCc2cc(Cl)ccc21", "operator": "=", "IC50, nM": 1070}
{"smiles.structure": "CC(=O)N1Cc2cc(C(F)(F)F)ccc2[C@H](N(C)C(=O)c2cc3nc(N)c4c(c3[nH]2)COC4)C1", "operator": "=", "IC50, nM": 11}
{"smiles.structure": "C[C@H]1OCc2c1c(N)nc1cc(C(=O)N(C)[C@@H]3COC4(CC4)c4cc(C5CC5)ccc43)[nH]c21", "operator": "=", "IC50, nM": 39}
{"smiles.structure": "C[C@H](c1ncccn1)N(Cc1ncc(C2CC2)cc1F)C(=O)c1cc2nc(N)c3c(c2[nH]1)COC3", "operator": "=", "IC50, nM": 4.6}
{"smiles.structure": "Nc1nc2cc(C(=O)N(Cc3c(F)cccc3F)CC3CC3)[nH]c2c2c1COC2", "operator": "=", "IC50, nM": 210}
{"smiles.structure": "C[C@@H]1OC[C@H](N(C)C(=O)c2cc3nc(N)c4c(c3[nH]2)COC4)c2ccc(C(F)(F)F)cc21", "operator": "=", "IC50, nM": 1080}
{"smiles.structure": "C[C@H](c1ccc(C2CC2)cn1)N(C(=O)c1cc2nc(N)c3c(c2[nH]1)COC3)C1CCC1", "operator": "=", "IC50, nM": 36}
{"smiles.structure": "C[C@H](c1ncccn1)N(Cc1ncc(Br)cc1F)C(=O)c1cc2nc(N)c3c(c2[nH]1)COC3", "operator": "=", "IC50, nM": 6.6}
{"smiles.structure": "C[C@@H](c1ccc(Br)cc1F)N(C)C(=O)c1cc2nc(N)c3c(c2[nH]1)COC3", "operator": "=", "IC50, nM": 913}
{"smiles.structure": "C[C@H]1OCc2c1c(N)nc1cc(C(=O)N(C)[C@H]3COCc4cc(Br)ccc43)[nH]c21", "operator": "=", "IC50, nM": 728}
{"smiles.structure": "CN(C(=O)c1cc2nc(N)c3c(c2[nH]1)COC3)[C@H]1COCc2cc(C(F)(F)F)cnc21", "operator": ">", "IC50, nM": 10000}
{"smiles.structure": "COC[C@@H](C)N(Cc1c(F)cc(C#N)cc1F)C(=O)c1cc2nc(N)c3c(c2[nH]1)COC3", "operator": "=", "IC50, nM": 9}
{"smiles.structure": "C[C@H]1OC[C@@H](N(C)C(=O)c2cc3nc(N)c4c(c3[nH]2)CO[C@@H]4C)c2ccc(C(F)(F)F)cc21", "operator": "=", "IC50, nM": 7.2}
{"smiles.structure": "C[C@@H](c1ncc(C(F)(F)F)cc1F)N(C(=O)c1cc2nc(N)c3c(c2[nH]1)COC3)C1CCC1", "operator": "=", "IC50, nM": 523}
{"smiles.structure": "COCC(COC)N(Cc1ccc(-c2c(F)cccc2F)cn1)C(=O)c1cc2nc(N)c3c(c2[nH]1)COC3", "operator": "=", "IC50, nM": 1}
